Quick reference for MIC B. subtilis ATCC6633 among some compounds
Tested on: B. subtilis ATCC6633
Type: cell-based, Bacillus subtilis
Where a SMILES comes first, the peptide text is derived from it.
Quick note: give the figure in µM, leave out the unit.

Observe how each entry below is paired with its result.
Provide measured MIC B. subtilis ATCC6633 value, entry: C[C@H](NC(=O)[C@H](C)NC(=O)[C@H](Cc1ccccc1)NC(=O)[C@H](C)NC(=O)[C@H](C)NC(=O)[C@H](Cc1ccccc1)NC(=O)[C@H](C)NC(=O)[C@H](C)NC(=O)[C@H](Cc1ccccc1)NC(=O)[C@H](C)NC(=O)[C@H](C)NC(=O)[C@H](CCCCN)NC(=O)[C@H](CCCCN)NC(=O)[C@H](CCCCN)NC(=O)[C@H](CCCCN)NC(=O)[C@H](CCCCN)NC(=O)[C@@H](N)CCCCN)C(N)=O [Peptide 3F17-6K, KKKKKKAAFAAFAAFAA-NH2] (H-KKKKKKAAFAAFAAFAA-NH2; N-terminus assumed)
16

Provide measured MIC B. subtilis ATCC6633 value, entry: C[C@H](NC(=O)[C@H](C)NC(=O)[C@H](CCCCN)NC(=O)[C@H](CCCCN)NC(=O)[C@@H](N)CCCCN)C(=O)N[C@@H](C)C(=O)N[C@@H](Cc1ccccc1)C(=O)N[C@@H](C)C(=O)N[C@@H](C)C(=O)N[C@@H](Cc1c[nH]c2ccccc12)C(=O)N[C@@H](C)C(=O)N[C@@H](C)C(=O)N[C@@H](Cc1ccccc1)C(=O)N[C@@H](C)C(=O)N[C@@H](CCCCN)C(=O)N[C@@H](CCCCN)C(=O)N[C@@H](CCCCN)C(N)=O [Peptide F17, KKKAAAFAAWAAFAKKK-NH2] (H-KKKAAAFAAWAAFAKKK-NH2; N-terminus assumed)
16

Provide measured MIC B. subtilis ATCC6633 value, entry: C[C@H](NC(=O)[C@H](C)NC(=O)[C@H](Cc1ccccc1)NC(=O)[C@H](C)NC(=O)[C@H](C)NC(=O)[C@H](Cc1c[nH]c2ccccc12)NC(=O)[C@H](C)NC(=O)[C@H](C)NC(=O)[C@H](Cc1ccccc1)NC(=O)[C@H](C)NC(=O)[C@H](C)NC(=O)[C@H](CCCCN)NC(=O)[C@H](CCCCN)NC(=O)[C@H](CCCCN)NC(=O)[C@H](CCCCN)NC(=O)[C@H](CCCCN)NC(=O)[C@@H](N)CCCCN)C(N)=O [F17(K6), KKKKKKAAFAAWAAFAA-NH2] (H-KKKKKKAAFAAWAAFAA-NH2; N-terminus assumed)
8

Alright, here's another compound for you.
Provide measured MIC B. subtilis ATCC6633 value, entry: C[C@H](NC(=O)[C@H](C)NC(=O)[C@H](Cc1c[nH]c2ccccc12)NC(=O)[C@H](C)NC(=O)[C@H](C)NC(=O)[C@H](Cc1c[nH]c2ccccc12)NC(=O)[C@H](C)NC(=O)[C@H](C)NC(=O)[C@H](Cc1c[nH]c2ccccc12)NC(=O)[C@H](C)NC(=O)[C@H](C)NC(=O)[C@H](CCCCN)NC(=O)[C@H](CCCCN)NC(=O)[C@H](CCCCN)NC(=O)[C@H](CCCCN)NC(=O)[C@H](CCCCN)NC(=O)[C@@H](N)CCCCN)C(N)=O [Peptide W17-6K, KKKKKKAAWAAWAAWAA-NH2] (H-KKKKKKAAWAAWAAWAA-NH2; N-terminus assumed)
4
